Known IC50 of a selection of compounds
Biological target: PI3K δ (Homo sapiens, UniProt O00329)
Construct: purchased Upstate / Millipore Corporation
Sequence (O00329 whole entry): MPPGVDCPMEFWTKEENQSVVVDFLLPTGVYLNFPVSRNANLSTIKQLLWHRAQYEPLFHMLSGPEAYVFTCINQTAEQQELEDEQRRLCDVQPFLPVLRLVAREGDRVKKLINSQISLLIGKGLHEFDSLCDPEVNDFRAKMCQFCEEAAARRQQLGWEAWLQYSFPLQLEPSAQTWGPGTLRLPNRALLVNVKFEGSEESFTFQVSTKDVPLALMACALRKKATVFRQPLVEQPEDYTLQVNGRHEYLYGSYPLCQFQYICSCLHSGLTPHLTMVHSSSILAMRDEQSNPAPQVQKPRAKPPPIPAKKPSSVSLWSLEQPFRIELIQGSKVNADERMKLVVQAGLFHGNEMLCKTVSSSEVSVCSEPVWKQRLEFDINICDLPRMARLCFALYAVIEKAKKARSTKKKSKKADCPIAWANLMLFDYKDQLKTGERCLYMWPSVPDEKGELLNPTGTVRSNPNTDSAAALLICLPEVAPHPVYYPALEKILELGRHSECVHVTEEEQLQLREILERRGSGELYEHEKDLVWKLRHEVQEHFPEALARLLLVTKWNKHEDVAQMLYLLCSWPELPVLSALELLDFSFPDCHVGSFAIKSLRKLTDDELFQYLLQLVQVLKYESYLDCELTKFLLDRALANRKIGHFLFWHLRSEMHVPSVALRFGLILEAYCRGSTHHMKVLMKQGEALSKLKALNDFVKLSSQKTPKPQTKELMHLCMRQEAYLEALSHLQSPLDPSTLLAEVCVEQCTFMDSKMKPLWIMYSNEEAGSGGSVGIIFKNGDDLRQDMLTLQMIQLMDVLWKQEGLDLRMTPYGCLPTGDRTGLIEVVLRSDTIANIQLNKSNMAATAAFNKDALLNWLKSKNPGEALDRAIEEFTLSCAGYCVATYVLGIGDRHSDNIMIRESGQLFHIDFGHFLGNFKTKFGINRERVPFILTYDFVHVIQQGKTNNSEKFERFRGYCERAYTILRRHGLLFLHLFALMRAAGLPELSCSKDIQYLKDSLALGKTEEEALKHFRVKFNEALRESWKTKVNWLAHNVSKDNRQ
Sequence (P27986 whole entry partner): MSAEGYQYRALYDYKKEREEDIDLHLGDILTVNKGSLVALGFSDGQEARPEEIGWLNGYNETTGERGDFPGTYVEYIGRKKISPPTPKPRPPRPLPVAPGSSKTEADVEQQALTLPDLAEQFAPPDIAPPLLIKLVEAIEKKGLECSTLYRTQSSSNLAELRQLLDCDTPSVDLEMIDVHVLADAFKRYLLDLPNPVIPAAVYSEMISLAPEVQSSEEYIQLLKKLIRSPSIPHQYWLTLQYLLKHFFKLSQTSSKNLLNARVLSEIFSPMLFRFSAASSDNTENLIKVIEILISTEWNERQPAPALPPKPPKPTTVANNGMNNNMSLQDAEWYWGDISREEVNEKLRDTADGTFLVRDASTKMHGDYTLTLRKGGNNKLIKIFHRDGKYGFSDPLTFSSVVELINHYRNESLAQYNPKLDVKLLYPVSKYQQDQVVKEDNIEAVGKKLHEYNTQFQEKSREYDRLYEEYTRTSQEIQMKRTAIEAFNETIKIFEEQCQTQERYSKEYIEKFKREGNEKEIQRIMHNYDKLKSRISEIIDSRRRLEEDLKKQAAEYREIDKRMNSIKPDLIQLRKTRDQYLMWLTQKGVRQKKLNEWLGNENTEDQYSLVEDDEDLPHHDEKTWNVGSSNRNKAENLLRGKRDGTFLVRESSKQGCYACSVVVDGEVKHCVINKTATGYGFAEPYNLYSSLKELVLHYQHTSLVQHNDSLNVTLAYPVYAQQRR
Test: PI 3-Kinase (human) HTRF assay, PI3K δ
Assay type: biochemical
Settings: read-out: PI3K δ IC50
endpoint-name: IC50

[[record]]
compound = "Nc1nc2cc(-c3ccc4ncc(C(=O)N5CC(N6CCOCC6)C5)n4c3)ccc2o1 [Compound 266]"
study_system = "PI3K δ (Homo sapiens, UniProt O00329)"
val = "< 1 µM"

[[record]]
compound = "CC(=O)Nc1nc2cc(-c3ccc4oc(N)nc4c3)ccc2o1 [Compound 244]"
study_system = "PI3K δ (Homo sapiens, UniProt O00329)"
val = "> 10 µM"

[[record]]
compound = "Nc1nc2cc(-c3ccc4ncc(-c5ccccn5)nc4c3)ccc2o1 [Compound 195]"
study_system = "PI3K δ (Homo sapiens, UniProt O00329)"
val = "> 10 µM"

[[record]]
compound = "Cc1c(-c2ccc3ncc(C(=O)N4CCOCC4)n3c2)ccc2oc(N)nc12 [Compound 369]"
study_system = "PI3K δ (Homo sapiens, UniProt O00329)"
val = "> 10 µM"

[[record]]
compound = "Nc1nc2cc(-c3ccc4ncc(N5CCN(C(=O)[C@H]6CCCN6)CC5)nc4c3)ccc2o1 [Compound 225]"
study_system = "PI3K δ (Homo sapiens, UniProt O00329)"
val = "< 0.1 µM"


====

Target: PI3K β (p110β/p85α) (Homo sapiens)
Construct: purchased Upstate / Millipore Corporation
Sequence (P42338 whole entry, one chain of several): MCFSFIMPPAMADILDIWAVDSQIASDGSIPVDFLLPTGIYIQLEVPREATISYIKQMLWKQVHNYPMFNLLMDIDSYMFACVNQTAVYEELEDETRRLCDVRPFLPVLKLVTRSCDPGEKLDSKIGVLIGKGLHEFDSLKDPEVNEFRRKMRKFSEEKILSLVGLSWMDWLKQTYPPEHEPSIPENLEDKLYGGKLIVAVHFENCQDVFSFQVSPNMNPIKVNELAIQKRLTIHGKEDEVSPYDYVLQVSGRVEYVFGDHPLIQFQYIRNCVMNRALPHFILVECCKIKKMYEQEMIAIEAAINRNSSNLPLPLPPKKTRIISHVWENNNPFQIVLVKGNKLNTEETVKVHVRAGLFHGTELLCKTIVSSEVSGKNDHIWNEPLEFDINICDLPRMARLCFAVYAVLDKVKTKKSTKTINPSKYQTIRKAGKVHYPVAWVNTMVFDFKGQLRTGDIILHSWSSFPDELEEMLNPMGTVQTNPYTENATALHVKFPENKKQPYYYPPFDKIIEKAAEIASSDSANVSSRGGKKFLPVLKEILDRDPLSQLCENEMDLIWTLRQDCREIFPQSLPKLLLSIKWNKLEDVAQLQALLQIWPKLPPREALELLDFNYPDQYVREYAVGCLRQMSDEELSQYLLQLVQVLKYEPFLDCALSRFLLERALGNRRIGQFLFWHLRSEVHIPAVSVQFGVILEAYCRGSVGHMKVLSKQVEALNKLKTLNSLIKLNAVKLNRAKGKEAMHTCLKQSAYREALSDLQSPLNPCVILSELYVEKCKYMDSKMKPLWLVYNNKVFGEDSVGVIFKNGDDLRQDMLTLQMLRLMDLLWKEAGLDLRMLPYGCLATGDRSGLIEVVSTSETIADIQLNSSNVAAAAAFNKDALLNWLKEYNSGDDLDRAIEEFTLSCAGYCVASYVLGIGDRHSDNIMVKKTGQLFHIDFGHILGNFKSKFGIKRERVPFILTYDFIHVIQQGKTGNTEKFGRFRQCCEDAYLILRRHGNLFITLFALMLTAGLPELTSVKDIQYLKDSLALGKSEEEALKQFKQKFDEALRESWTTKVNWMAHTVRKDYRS
Assay: PI 3-Kinase (human) HTRF assay, PI3K β
Format: biochemical
Settings: read-out: PI3K β IC50
Each entry below carries its recorded IC50.
endpoint-name: IC50

[[record]]
molecule = "CC1(C)CN(C2CN(C(=O)c3cnc4ccc(-c5ccc6oc(N)nc6c5)cn34)C2)CCN1 [Compound 515]"
study_system = "PI3K β (p110β/p85α) (Homo sapiens)"
val = "< 10 µM"

[[record]]
molecule = "Nc1nc2cc(-c3ccc4nnc(-c5cccnc5)n4c3)ccc2o1 [Compound 300]"
study_system = "PI3K β (p110β/p85α) (Homo sapiens)"
val = "< 10 µM"

[[record]]
molecule = "CCN(CC)CCCn1cnc2ccc(-c3ccc4oc(N)nc4c3)cc2c1=O [Compound 281]"
study_system = "PI3K β (p110β/p85α) (Homo sapiens)"
val = "> 10 µM"

[[record]]
molecule = "Nc1nc2cc(-c3ccc4ncc(C(=O)N5CCOCC5)n4c3)c(F)cc2o1 [Compound 372]"
study_system = "PI3K β (p110β/p85α) (Homo sapiens)"
val = "< 10 µM"

[[record]]
molecule = "O=C(c1cnc2ccc(-c3cnc4[nH]ncc4c3)cn12)N1CCOCC1 [Compound 492]"
study_system = "PI3K β (p110β/p85α) (Homo sapiens)"
val = "< 10 µM"

[[record]]
molecule = "Nc1nc2cc(-c3ccc4nccc(-c5ccncc5)c4c3)ccc2s1 [Compound 70]"
study_system = "PI3K β (p110β/p85α) (Homo sapiens)"
val = "< 0.1 µM"

[[record]]
molecule = "CN1CCN(C(=O)c2cnc3ccc(-c4ccc5oc(N)nc5c4)cc3n2)CC1 [Compound 157]"
study_system = "PI3K β (p110β/p85α) (Homo sapiens)"
val = "> 10 µM"

[[record]]
molecule = "Nc1nc2cc(-c3ccc4ncc(C(=O)N5CC[C@@H](F)C5)n4c3)ccc2o1 [Compound 475]"
study_system = "PI3K β (p110β/p85α) (Homo sapiens)"
val = "> 10 µM"

[[record]]
molecule = "Nc1nc2cc(-c3nc4cc(-c5cccnc5)cnc4s3)ccc2o1 [Compound 402]"
study_system = "PI3K β (p110β/p85α) (Homo sapiens)"
val = "> 10 µM"


====

Entries and their measured pIC50 follow.
Target: PI3K γ (p110γ) (Homo sapiens)
Construct: purchased Upstate / Millipore Corporation
Sequence (P48736 whole entry): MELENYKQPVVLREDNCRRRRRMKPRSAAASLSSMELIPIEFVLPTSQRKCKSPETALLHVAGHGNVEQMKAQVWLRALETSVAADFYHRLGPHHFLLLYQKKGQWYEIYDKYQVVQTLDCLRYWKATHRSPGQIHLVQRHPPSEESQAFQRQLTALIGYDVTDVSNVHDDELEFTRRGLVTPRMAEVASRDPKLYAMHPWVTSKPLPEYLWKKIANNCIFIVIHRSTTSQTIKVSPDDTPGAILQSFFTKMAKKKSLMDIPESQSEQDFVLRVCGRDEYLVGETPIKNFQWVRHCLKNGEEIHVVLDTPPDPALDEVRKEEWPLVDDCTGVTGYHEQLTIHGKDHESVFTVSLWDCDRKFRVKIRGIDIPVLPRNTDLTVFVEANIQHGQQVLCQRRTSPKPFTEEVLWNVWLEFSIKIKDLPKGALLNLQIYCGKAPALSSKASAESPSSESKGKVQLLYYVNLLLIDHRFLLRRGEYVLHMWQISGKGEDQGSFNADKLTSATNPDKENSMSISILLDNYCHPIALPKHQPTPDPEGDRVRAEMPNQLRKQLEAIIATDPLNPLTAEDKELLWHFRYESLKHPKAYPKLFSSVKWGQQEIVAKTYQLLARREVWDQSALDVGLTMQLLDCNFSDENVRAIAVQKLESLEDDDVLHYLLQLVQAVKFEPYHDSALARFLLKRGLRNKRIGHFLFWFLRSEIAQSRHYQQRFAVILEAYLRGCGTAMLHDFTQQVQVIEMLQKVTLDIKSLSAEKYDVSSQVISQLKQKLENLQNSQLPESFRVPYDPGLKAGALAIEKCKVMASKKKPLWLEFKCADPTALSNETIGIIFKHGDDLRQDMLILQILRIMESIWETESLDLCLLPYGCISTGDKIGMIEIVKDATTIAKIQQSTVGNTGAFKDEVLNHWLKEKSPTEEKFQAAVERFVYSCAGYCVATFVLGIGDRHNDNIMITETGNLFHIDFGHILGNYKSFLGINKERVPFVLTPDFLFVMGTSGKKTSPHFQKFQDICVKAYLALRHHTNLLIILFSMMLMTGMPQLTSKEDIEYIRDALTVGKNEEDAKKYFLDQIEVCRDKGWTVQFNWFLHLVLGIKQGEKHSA
Assay: PI 3-Kinase (human) HTRF assay, PI3K γ
Format: biochemical
Conditions: read-out: PI3K γ IC50
pIC50: −log10 of the molar value.
endpoint-name: pIC50

[[record]]
molecule = "COc1nc(-c2ccc3oc(N)nc3c2)cnc1N"
val = "> 6.00"

[[record]]
molecule = "CN1CCN(C2CN(C(=O)c3cnc4ccc(-c5ccc6oc(N)nc6c5)cn34)C2)CC1"
val = "< 5.00"

[[record]]
molecule = "CCOC(=O)N1CCN(c2cnc3ccc(-c4ccc5oc(N)nc5c4)cc3n2)CC1"
val = "> 5.00"

[[record]]
molecule = "Nc1nc2cc(-c3ccc4ncc(-c5ccc6nc(N)oc6c5)n4c3)ccc2o1"
val = "> 7.00"

[[record]]
molecule = "Nc1nc2ccc(-c3ccc4nccc(-c5ccncc5)c4c3)cc2s1"
val = "> 6.00"

[[record]]
molecule = "Nc1nc2cc(-c3ccc4sc(N)nc4c3)ccc2o1"
val = "> 6.00"

[[record]]
molecule = "Nc1nc2cc(-c3ccc4ncc(C(=O)N5CCC(F)(F)C5)n4c3)ccc2o1"
val = "> 7.00"

[[record]]
molecule = "CCN(CC)CCn1cnc2ccc(-c3ccc4oc(N)nc4c3)cc2c1=O"
val = "< 5.00"

[[record]]
molecule = "Cc1cn(C2CN(c3cnc4ccc(-c5ccc6oc(N)nc6c5)cc4n3)C2)cn1"
val = "> 6.00"

[[record]]
molecule = "Nc1cn2cc(-c3ccc4oc(N)nc4c3)ccc2n1"
val = "> 6.00"

[[record]]
molecule = "CC(=O)Nc1nc2cc(-c3cc(F)c4oc(N)nc4c3)ccc2s1"
val = "> 7.00"

[[record]]
molecule = "Nc1nc2cc(-c3ccc4ncc(N5CC(N6CCOCC6)C5)nc4c3)cc(F)c2o1"
val = "> 6.00"

[[record]]
molecule = "COC1CN(C(=O)c2cnc3ccc(-c4ccc5oc(N)nc5c4)cn23)C1"
val = "> 7.00"

[[record]]
molecule = "CS(=O)(=O)Nc1cccc(-c2ccc3ncc(C(=O)N4CCOCC4)n3c2)c1"
val = "< 5.00"

[[record]]
molecule = "NC(=O)[C@@H]1CCCN1C(=O)c1cnc2ccc(-c3ccc4oc(N)nc4c3)cn12"
val = "> 5.00"

[[record]]
molecule = "Nc1nc2cc(-c3ccc4ncc(N5CCN(C(=O)CN6CCCC6)CC5)nc4c3)ccc2o1"
val = "> 6.00"

[[record]]
molecule = "Nc1nc2cc(-c3ccc4ncc(C(=O)N5CC5)n4c3)ccc2o1"
val = "> 6.00"

[[record]]
molecule = "O=C(c1cnc2ccc(-c3ccnc4[nH]ncc34)cn12)N1CCOCC1"
val = "< 5.00"


====

Target: PI3K α (p110α/p85α) (Homo sapiens, UniProt P42336)
Construct: purchased Upstate / Millipore Corporation
Sequence (P42336 whole entry): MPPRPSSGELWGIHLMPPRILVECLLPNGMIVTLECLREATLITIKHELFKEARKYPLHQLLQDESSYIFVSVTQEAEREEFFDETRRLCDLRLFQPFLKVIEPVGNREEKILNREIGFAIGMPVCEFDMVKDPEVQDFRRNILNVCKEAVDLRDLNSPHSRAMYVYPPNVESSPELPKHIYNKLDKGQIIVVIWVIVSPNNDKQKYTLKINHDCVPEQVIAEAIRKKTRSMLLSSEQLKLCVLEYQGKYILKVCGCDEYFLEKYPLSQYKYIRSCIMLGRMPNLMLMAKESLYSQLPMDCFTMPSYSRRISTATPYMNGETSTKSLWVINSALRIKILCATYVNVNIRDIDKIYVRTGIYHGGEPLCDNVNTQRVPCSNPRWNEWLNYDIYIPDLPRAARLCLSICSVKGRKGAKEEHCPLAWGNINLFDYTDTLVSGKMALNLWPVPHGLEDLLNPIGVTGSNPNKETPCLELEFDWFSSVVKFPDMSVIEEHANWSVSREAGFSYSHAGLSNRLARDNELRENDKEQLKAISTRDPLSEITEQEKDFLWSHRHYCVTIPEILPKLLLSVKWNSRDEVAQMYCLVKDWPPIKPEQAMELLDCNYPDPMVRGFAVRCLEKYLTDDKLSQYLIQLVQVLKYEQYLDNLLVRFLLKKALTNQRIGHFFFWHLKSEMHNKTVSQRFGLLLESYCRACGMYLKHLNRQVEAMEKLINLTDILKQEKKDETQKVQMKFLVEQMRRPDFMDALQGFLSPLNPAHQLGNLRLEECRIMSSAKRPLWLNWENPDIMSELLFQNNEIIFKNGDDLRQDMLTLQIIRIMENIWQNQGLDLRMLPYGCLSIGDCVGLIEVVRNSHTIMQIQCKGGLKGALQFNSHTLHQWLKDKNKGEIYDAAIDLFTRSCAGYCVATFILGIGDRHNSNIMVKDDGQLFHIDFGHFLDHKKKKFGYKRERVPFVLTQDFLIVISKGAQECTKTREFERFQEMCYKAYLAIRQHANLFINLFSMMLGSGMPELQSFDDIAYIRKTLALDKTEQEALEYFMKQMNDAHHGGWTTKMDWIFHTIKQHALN
Sequence (P27986 whole entry partner): as the sequence (P27986 whole entry partner) above
Experiment: PI 3-Kinase (human) HTRF assay, PI3K α
Format: biochemical
Conditions: read-out: PI3K α IC50
endpoint-name: IC50

[[record]]
molecule = "Nc1nc2cc(-c3ccc4ncc(C(=O)N5CCOCC5)nc4c3)ccc2o1 [Compound 158]"
val = "< 10000 nM"

[[record]]
molecule = "Nc1noc2cc(-c3ccc4nccc(-c5ccncc5)c4c3)ccc12 [Compound 16]"
val = "< 100 nM"

[[record]]
molecule = "CN1CCC(N(C)C(=O)c2cnc3ccc(-c4ccc5oc(N)nc5c4)cn23)CC1 [Compound 165]"
val = "< 1000 nM"

[[record]]
molecule = "CS(=O)(=O)N1CCC(Nc2ncnc3ccc(-c4ccc5oc(N)nc5c4)cc23)CC1 [Compound 87]"
val = "< 100 nM"

[[record]]
molecule = "Nc1nc2ccc(-c3ccc4nccc(-c5ccncc5)c4c3)cc2s1 [Compound 3]"
val = "< 100 nM"

[[record]]
molecule = "Nc1nc2cc(-c3ccc4ncnc(OC5CCOCC5)c4c3)ccc2o1 [Compound 47]"
val = "< 100 nM"

[[record]]
molecule = "O=C(c1cnc2ccc(-c3cnc(Cl)c(NS(=O)(=O)c4ccccc4)c3)cn12)N1CCOCC1 [Compound 451]"
val = "< 100 nM"

[[record]]
molecule = "Nc1nc2ccc(-c3ccc4nnc(C(=O)N5CCCC5)n4c3)cc2o1 [Compound 305]"
val = "< 10000 nM"

[[record]]
molecule = "CN1CCN([C@@H]2CCN(c3cnc4ccc(-c5ccc6oc(N)nc6c5)cc4n3)C2)CC1 [Compound 379]"
val = "< 100 nM"

[[record]]
molecule = "CS(=O)(=O)Nc1cc(-c2ccc3ncc(C(=O)N4CCOCC4)n3c2)cnc1Cl [Compound 418]"
val = "< 100 nM"

[[record]]
molecule = "Nc1nc2cc(-c3ccc4ncc(N5CC(N)C5)nc4c3)ccc2o1 [Compound 367]"
val = "< 1000 nM"

[[record]]
molecule = "Nc1nc2cc(-c3cc(F)c4ncc(C(=O)N5CCOCC5)n4c3)ccc2o1 [Compound 438]"
val = "< 10000 nM"

[[record]]
molecule = "C[C@H]1CCCN1C(=O)c1cnc2ccc(-c3ccc4oc(N)nc4c3)cn12 [Compound 482]"
val = "< 100 nM"

[[record]]
molecule = "Nc1nc2cc(-c3c[nH]c4nccc(-c5ccncc5)c34)ccc2o1 [Compound 25]"
val = "< 10000 nM"

[[record]]
molecule = "O=C(c1cnc2ccc(-c3ccc4oc(NC5CC5)nc4c3)cn12)N1CCOCC1 [Compound 409]"
val = "< 10000 nM"

[[record]]
molecule = "Nc1nc2cccc(-c3ccc4nccc(-c5ccncc5)c4c3)c2s1 [Compound 17]"
val = "< 100 nM"

[[record]]
molecule = "Nc1nc2cc(-c3ccc4ncc(-c5ccc6nc(N)oc6c5)n4c3)ccc2o1 [Compound 50]"
val = "< 100 nM"

[[record]]
molecule = "Nc1nc2cc(-c3ccc4ncn(CCN5CCCC5)c(=O)c4c3)ccc2o1 [Compound 255]"
val = "< 10000 nM"


Values from patent US20150087627A1
